Ratio Ki values, listed per item
# Species: Rattus norvegicus
# protocolDetails: Selectivity ratio of Ki for rat alpha3beta4 nAChR to Ki for rat alpha4beta2 nAChR

# compound, Ratio Ki
records = [
    ("CC(C)(C)C1CCC(CN2C(=N)N(CCCC[C@@H]3CNC(=N)N3CCc3cccnc3)C[C@H]2Cc2ccccc2)CC1 (stereo not given in full)", 206),
    ("CC(C)(C)C1CCC(CN2C(=N)N(CCCC[C@H]3CNC(=N)N3CCc3cccc(F)c3)C[C@H]2Cc2ccccc2)CC1 (stereo not given in full)", 39),
    ("CC(C)(C)C1CCC(CN2C(=N)N(CCCC[C@H]3CNC(=N)N3CCc3cccnc3)C[C@@H]2Cc2ccccc2)CC1 (stereo not given in full)", 74),
    ("CC(C)(C)C1CCC(CN2C(=N)N(CCCC[C@@H]3CNC(=N)N3CCc3cccnc3)C[C@H]2CC2CCCCC2)CC1 (stereo not given in full)", 130),
    ("CC(C)(C)C1CCC(CN2C(=N)N(CCCC[C@H]3CNC(=N)N3CCc3cccnc3)C[C@H]2Cc2ccccc2)CC1 (stereo not given in full)", 478),
    ("CC(C)(C)C1CCC(CN2CCN(CCCC[C@H]3CNC(=N)N3CCc3cccnc3)C2=N)CC1 (stereo not given in full)", 64),
    ("CC(C)(C)C1CCC(CN2CCN(CCCC[C@@H]3CNC(=N)N3CCc3cccnc3)C2=N)CC1 (stereo not given in full)", 23),
    ("CC(C)(C)C1CCC(CN2C(=N)N(CCCC[C@H]3CNC(=N)N3CCc3cccnc3)C[C@@H]2CC2CCCCC2)CC1 (stereo not given in full)", 128),
    ("CC(C)(C)C1CCC(CN2C(=N)N(CCCC[C@H]3CNC(=N)N3CCc3cccnc3)C[C@H]2CC2CCCCC2)CC1 (stereo not given in full)", 176),
    ("CC(C)(C)C1CCC(CN2C(=N)N(CCCC[C@H]3CNC(=N)N3CCc3cccc(F)c3)C[C@H]2CC2CCCCC2)CC1 (stereo not given in full)", 24),
]

Entry source: ChEMBL document CHEMBL3108759
